- Tested on: NCI-H23 lung
- method: NCI-60 one-dose screen, 48 h
- runParameters: 10 µM unless noted
Compounds without any hit were thinned out: in the full panel of roughly 83,000, 20% have a hit. Calls of active or inactive are those of the source. The calls were made as follows: active = growth percent below 10; inactive = the rest.
Outcome codes: active, inactive

[
  {
    "molecule": "CC1=C(CN)C2=C(C)C3(CC3)[C@@](C)(O)C(=O)C2=C1",
    "subjectOfTest": "NCI-H23 lung",
    "cat": "inactive"
  },
  {
    "molecule": "CC1=C(CCCOC(=O)[C@H](N)CC(C)C)C2=C(C)C3(CC3)[C@@](C)(O)C(=O)C2=C1",
    "subjectOfTest": "NCI-H23 lung",
    "cat": "active"
  },
  {
    "molecule": "Cc1sc2c(c1C)C(c1ccc(Cl)cc1)=N[C@@H](CC(=O)OC(C)(C)C)c1nnc(C)n1-2",
    "subjectOfTest": "NCI-H23 lung",
    "cat": "inactive"
  },
  {
    "molecule": "C[C@]12CC[C@H]3[C@@H](CC4SC(N)=NC45C/C(=N/NC(N)=O)CC[C@]35C)[C@@H]1CCC2=O (stereo partly specified)",
    "subjectOfTest": "NCI-H23 lung",
    "cat": "active"
  },
  {
    "molecule": "COc1cc(/C=N/C2=C(C#N)C(c3ccco3)c3c(c4cc(C)ccc4oc3=O)O2)cc(OC)c1OC (stereo unspecified)",
    "subjectOfTest": "NCI-H23 lung",
    "cat": "inactive"
  },
  {
    "molecule": "COc1ccc2c(c1)c(-c1nc(-c3cn(C)c4ncccc34)cs1)cn2CCCCN1CCCCC1",
    "subjectOfTest": "NCI-H23 lung",
    "cat": "inactive"
  },
  {
    "molecule": "C=CC[Se]C(=O)c1ccccc1OC(C)=O",
    "subjectOfTest": "NCI-H23 lung",
    "cat": "active"
  },
  {
    "molecule": "CS(=O)(=O)CCN1CC2CCCC(C2)C1",
    "subjectOfTest": "NCI-H23 lung",
    "cat": "inactive"
  },
  {
    "molecule": "CN1C(=O)N[C@H]2[C@@H]3NC(=O)c4ccc(Br)n4[C@@H]3C[C@]21O",
    "subjectOfTest": "NCI-H23 lung",
    "cat": "active"
  },
  {
    "molecule": "O=C(CCCCCNC1=CC(=O)c2ccccc2C1=O)NCCC[Te]c1ccccc1",
    "subjectOfTest": "NCI-H23 lung",
    "cat": "active"
  },
  {
    "molecule": "C/C(=C\\c1ccn(-c2ccccc2N)n1)[C@@H]1C[C@@H]2O[C@]2(C)CCC[C@H](C)[C@H](O)[C@@H](C)C(=O)C(C)(C)[C@@H](O)CC(=O)O1",
    "subjectOfTest": "NCI-H23 lung",
    "cat": "inactive"
  },
  {
    "molecule": "CC1(C)C(C(=O)c2cn(CCCCF)c3ccccc23)C1(C)C",
    "subjectOfTest": "NCI-H23 lung",
    "cat": "inactive"
  },
  {
    "molecule": "Nc1ncnc2n[nH]nc12",
    "subjectOfTest": "NCI-H23 lung",
    "cat": "inactive"
  },
  {
    "molecule": "N#C[Se]CCN1C(=O)c2ccccc2C1=O",
    "subjectOfTest": "NCI-H23 lung",
    "cat": "inactive"
  },
  {
    "molecule": "Nc1cc2nc3ccccc3nc2cc1N",
    "subjectOfTest": "NCI-H23 lung",
    "cat": "inactive"
  },
  {
    "molecule": "O=C1C(Cl)=C(N2CCOCC2)C(=O)c2ccccc21",
    "subjectOfTest": "NCI-H23 lung",
    "cat": "inactive"
  },
  {
    "molecule": "CC(C)=CC1C(C(=O)OCc2cccc(Oc3ccccc3)c2)C1(C)C (stereo unspecified)",
    "subjectOfTest": "NCI-H23 lung",
    "cat": "inactive"
  },
  {
    "molecule": "COc1cc([N+](=O)[O-])c2nc(C)ccc2c1[N+](=O)[O-]",
    "subjectOfTest": "NCI-H23 lung",
    "cat": "inactive"
  },
  {
    "molecule": "CC12CCC3C(CCC4=CC(=O)CCC43CF)C1CCC2=O (stereo unspecified)",
    "subjectOfTest": "NCI-H23 lung",
    "cat": "inactive"
  },
  {
    "molecule": "Cc1cc(N(CCCl)CCCl)ccc1C=Nc1cccnc1",
    "subjectOfTest": "NCI-H23 lung",
    "cat": "inactive"
  },
  {
    "molecule": "Clc1cccc(NCOOC2(OOCNc3cccc(Cl)c3)CCCCC2)c1",
    "subjectOfTest": "NCI-H23 lung",
    "cat": "inactive"
  }
]
